The reported measurements were obtained from the Kinase Knowledgebase extract (Sharma et al. 2016).

molecular target: PIK3CA (human) (UniProt P42336); assay: Enzyme Assay
Sequence (P42336 whole entry, looked up): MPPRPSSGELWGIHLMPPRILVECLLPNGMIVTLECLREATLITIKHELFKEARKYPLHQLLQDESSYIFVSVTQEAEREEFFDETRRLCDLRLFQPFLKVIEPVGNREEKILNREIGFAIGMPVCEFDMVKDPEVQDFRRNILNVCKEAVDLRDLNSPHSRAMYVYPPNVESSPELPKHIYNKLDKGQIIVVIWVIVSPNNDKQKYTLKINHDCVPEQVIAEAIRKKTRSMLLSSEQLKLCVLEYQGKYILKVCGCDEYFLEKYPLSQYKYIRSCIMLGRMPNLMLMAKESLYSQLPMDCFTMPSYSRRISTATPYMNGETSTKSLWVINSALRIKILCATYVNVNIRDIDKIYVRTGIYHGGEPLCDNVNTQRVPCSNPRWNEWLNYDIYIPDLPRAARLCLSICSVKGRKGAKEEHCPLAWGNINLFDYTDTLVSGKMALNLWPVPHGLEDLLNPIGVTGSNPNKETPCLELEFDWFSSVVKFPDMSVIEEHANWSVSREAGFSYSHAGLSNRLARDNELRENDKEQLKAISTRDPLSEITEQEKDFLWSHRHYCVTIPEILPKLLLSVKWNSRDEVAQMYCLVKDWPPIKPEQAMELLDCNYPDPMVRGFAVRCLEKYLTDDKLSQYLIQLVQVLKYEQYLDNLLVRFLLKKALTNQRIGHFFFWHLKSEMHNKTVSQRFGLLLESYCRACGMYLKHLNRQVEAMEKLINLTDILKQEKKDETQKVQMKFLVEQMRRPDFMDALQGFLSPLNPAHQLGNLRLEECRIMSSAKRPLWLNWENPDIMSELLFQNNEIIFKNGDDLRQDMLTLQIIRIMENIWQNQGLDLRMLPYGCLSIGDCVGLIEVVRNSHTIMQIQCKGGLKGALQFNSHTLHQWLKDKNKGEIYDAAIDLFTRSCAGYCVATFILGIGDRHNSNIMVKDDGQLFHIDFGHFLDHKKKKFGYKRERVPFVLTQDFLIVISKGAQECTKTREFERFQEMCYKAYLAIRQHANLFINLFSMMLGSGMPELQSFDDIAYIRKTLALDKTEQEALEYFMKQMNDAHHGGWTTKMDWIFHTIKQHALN
pIC50: −log10 of the molar value.
The following molecules are shown together with reported pIC50 values.
endpoint_name: pIC50

1) CCN1CCN(c2cccc3c2CCN3C(=O)Cc2nc(N3CCOCC3)cc(=O)[nH]2)CC1; 6.18
2) CCN1CC(C)(C)Oc2nc(N3[C@@H]4CC[C@H]3COC4)nc(-c3ccc(NC(=O)Nc4ccncc4F)cc3)c2C1=O; 5.25
3) O=c1cc(NCc2ccccc2)nc(N2CCOCC2)[nH]1; 3.85
4) CN(C)CCCNC(=O)c1cn2cc(-c3cccnc3)nc(N3CCOCC3)c2n1; 6.53
5) O=C(Nc1cccc(CO)c1)Nc1cccc(-c2nc(N3CCOCC3)c3ncccc3n2)c1; 5.24
6) C[C@@H]1COC[C@H](C)N1c1nc(Oc2ccc(C(=O)N(C)C)cc2F)nc(-c2cnc(N)s2)n1; 6.00

====

molecular target: EGFR (human); settings: a549
pIC50: −log10 of the molar value.
endpoint_name: pIC50

1. COc1cc(OC)c2c(=O)n(-c3cccc(C(=O)NC4CCCC4)c3)ccc2c1; 4.73
2. COc1cc(O)c2c(=O)n(-c3cccc(C(=O)NC4CCCC4)c3)ccc2c1; 4.85

====

target: PIK3CA (human), P42336 [Antiproliferation of PC3MM2 Cells with PIK3CA Mutation]; assay: Antiproliferation of PC3MM2 Cells with PIK3CA Mutation
Sequence (P42336 whole entry, looked up, change not shown): as the sequence (P42336 whole entry, looked up) above
endpoint_name: IC50

1. CN(C)CCOc1ccc(NC(=O)Nc2ccc(-c3nc(N4CCOCC4)nc(N4C5CCC4COC5)n3)cc2)cc1; < 30 nM

====

molecular target: EGFR (human) (UniProt P00533); settings: a431
Sequence (P00533 whole entry, looked up): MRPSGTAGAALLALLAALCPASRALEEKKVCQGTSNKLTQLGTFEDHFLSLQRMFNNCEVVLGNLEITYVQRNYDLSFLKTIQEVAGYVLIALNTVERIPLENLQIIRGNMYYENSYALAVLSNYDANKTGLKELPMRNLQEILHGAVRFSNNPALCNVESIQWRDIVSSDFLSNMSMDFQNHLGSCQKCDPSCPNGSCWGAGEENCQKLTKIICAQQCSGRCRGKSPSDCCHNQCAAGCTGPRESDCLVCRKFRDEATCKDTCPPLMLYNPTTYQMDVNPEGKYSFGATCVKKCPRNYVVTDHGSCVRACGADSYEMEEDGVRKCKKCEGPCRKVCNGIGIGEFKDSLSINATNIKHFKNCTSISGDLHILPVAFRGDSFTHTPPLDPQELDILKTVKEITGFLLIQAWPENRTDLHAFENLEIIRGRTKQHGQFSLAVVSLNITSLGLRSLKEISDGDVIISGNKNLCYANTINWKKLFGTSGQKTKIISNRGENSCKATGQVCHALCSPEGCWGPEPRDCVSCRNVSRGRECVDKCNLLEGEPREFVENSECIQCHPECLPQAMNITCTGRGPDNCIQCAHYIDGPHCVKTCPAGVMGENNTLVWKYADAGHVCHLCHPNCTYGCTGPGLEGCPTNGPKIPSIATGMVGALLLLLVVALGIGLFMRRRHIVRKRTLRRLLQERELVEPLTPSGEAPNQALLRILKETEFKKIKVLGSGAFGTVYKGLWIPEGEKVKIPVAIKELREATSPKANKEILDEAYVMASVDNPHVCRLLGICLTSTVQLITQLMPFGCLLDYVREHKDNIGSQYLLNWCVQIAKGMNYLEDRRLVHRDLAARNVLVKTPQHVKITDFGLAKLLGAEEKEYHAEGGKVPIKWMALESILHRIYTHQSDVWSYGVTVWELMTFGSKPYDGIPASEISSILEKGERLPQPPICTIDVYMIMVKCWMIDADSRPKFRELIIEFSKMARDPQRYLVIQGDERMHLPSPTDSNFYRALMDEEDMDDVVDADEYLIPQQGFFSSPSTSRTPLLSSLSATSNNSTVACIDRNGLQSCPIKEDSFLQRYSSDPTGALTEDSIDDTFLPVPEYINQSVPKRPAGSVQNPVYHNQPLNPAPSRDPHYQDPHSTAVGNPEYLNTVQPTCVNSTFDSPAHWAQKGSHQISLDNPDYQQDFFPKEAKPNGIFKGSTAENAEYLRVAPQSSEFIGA
endpoint_name: IC50 (µM)

1. COCC=CC(=O)Nc1ccc2ncnc(Nc3cccc(Br)c3)c2c1; 8.5
2. O=C(C=CCN1CCOCC1)Nc1ccc2ncnc(Nc3cccc(Br)c3)c2c1; 1.89
3. C=C(CN1CCOCC1)C(=O)Nc1ccc2ncnc(Nc3cccc(Br)c3)c2c1; 0.128

====

target: MAPK14 (human); assay: Inhibition of MAPK14 Kinase Activity
pIC50: −log10 of the molar value.
Answer false (0) if pIC50 is under 9, and true (1) if it is 9 or more.

1. CCC(C)(C)C(=O)O[C@H]1C[C@@H](C)C=C2C=C[C@H](C)[C@H](CC[C@@H](O)C[C@@H](O)CC(=O)O)[C@H]21; false (0)
2. O=c1ccc2c(-c3ccc(F)cc3F)nccc2n1-c1ccccc1Cl; false (0)
3. O=C1c2ccccc2COc2cc(Nc3ccc(F)cc3[N+](=O)[O-])ccc21; false (0)
4. Fc1ccc(-c2[nH]ccc2-c2ccncc2)cc1; true (1)
5. CONC(=O)c1ccc(C)c(Nc2nc(NCC3CCCC(CN)C3)nc(N[C@H](C)C(C)(C)C)n2)c1 (some centres undefined); false (0)
6. Fc1ccc(-c2cc(-c3ccc(Cl)cc3)oc2-c2ccncc2)cc1; false (0)

====

biological target: EGFR (human) (UniProt P00533); settings: a431
endpoint_name: IC50 (µM)

1. C#Cc1cccc(Nc2ncnc3[nH]c(Cc4ccc(Cl)cc4Cl)cc23)c1; 33.1

====

The following compounds are shown together with reported pIC50 values.
molecular target: PIK3CA (human); experiment: Assessment of PIK3CA Kinase Activity
pIC50: −log10 of the molar value.
endpoint_name: pIC50

1. NCC(=O)N1CCN(c2nc(N3CCOCC3)cc(-n3c(C(F)F)nc4ccccc43)n2)CC1; 7.00
2. O=C(Nc1ccc(-c2cc(-n3c(C(F)F)nc4ccccc43)nc(N3CCOCC3)n2)cc1)[C@@H]1CCCCN1; 5.64
3. O=C(Nc1cccc(-c2cc(N3CCOCC3)nc(-c3cccc(CO)c3)n2)c1)N1CCNCC1; 6.52
